Origin of the recorded values: the supplement of paper PMC3334620

Target under test: Mot3 (UniProt P54785)
Sequence: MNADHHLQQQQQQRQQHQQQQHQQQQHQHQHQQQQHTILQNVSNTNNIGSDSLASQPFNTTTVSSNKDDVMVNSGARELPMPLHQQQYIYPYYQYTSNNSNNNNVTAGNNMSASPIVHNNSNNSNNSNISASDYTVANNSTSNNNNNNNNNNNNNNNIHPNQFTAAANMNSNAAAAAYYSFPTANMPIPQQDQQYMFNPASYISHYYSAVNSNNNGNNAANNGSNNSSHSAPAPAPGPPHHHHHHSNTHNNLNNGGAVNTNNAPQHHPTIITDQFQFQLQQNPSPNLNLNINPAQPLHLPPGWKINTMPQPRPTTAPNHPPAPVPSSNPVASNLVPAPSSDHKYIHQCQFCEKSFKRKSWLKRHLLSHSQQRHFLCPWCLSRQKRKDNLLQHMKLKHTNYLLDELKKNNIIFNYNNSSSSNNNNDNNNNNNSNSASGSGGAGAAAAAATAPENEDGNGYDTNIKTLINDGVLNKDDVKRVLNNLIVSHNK
Assay comment: PBM E-score (8-mer binding enrichment) (E-score (-0.5 to 0.5)); higher = stronger / more preferred TF binding
Condition label: protein concentration: 200 nM; construct: GST-full length
Whole data set: some 33,000 sequences, median “E-score (-0.5 to 0.5)” near -0.035, cut for the highest 2% near 0.34. The sample as a whole holds a higher share of the highest values than the screen did.
Entry flag: yes if PBM E-score reaches 0.3; no if it does not.

Answered examples (5):
>>> group_label("AGGCCTTC")
"no"
>>> group_label("ATAACATG")
"yes"
>>> group_label("CTAACATA")
"no"
>>> group_label("ACGCCAAG")
"no"
>>> group_label("CCAATCCC")
"no"

Tell me whether PBM E-score is at least 0.3 here: CTGCCTAC
no

Evaluate CAGCCTGC : PBM E-score at minimum 0.3?
no

Identify whether the reported PBM E-score of the following sequence is 0.3 or greater: CTGCAATC
no

Exam item: decide whether the reported PBM E-score for GAGCCTGA is at least 0.3.
no

====

Target under test: Mot3 (UniProt P54785)
Sequence: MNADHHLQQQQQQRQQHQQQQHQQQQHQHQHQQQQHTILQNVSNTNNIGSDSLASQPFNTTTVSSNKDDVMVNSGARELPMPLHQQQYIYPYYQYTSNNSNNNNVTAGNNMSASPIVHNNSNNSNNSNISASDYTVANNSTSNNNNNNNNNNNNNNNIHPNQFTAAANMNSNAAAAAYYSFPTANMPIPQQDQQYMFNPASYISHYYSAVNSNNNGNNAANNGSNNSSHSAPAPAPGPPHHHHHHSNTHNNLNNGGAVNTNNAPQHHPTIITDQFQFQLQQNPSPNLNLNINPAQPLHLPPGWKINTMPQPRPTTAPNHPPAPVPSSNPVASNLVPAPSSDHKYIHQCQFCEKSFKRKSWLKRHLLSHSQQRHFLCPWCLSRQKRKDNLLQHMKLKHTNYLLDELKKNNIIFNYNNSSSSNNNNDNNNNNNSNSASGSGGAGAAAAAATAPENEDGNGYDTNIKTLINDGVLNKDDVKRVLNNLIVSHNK
Assay comment: PBM E-score (8-mer binding enrichment) (E-score (-0.5 to 0.5)); higher = stronger / more preferred TF binding
Condition label: protein concentration: 200 nM; construct: GST-full length
Whole data set: some 33,000 sequences, median “E-score (-0.5 to 0.5)” near -0.035, cut for the highest 2% near 0.34. The sample as a whole holds a higher share of the highest values than the screen did.
Respond with criterion met for PBM E-score values of 0.04 and above, criterion not met for values below.

Past entries and their recorded results:
>>> group_label("ATGCAGGA")
"criterion not met"
>>> group_label("GCGAGGCA")
"criterion met"
>>> group_label("AGCTGAAC")
"criterion not met"
>>> group_label("CCATACTC")
"criterion not met"
>>> group_label("CCCCGGGG")
"criterion not met"
>>> group_label("CCTTAAGG")
"criterion met"
>>> group_label("AAGTTCCG")
"criterion met"
>>> group_label("GGTAGGGA")
"criterion not met"
>>> group_label("GATCCTCC")
"criterion not met"
>>> group_label("CCTATGCC")
"criterion not met"

# check: PBM E-score of ACAGGCGC is greater than or equal to 0.04
criterion met

Dear colleague, could you confirm whether AGTAGGCA has PBM E-score at or above 0.04?
criterion met

Check this sequence for PBM E-score at or above 0.04: CCTTAAGC
criterion not met

Check if PBM E-score >= 0.04 (inclusive). Item: CGTAGGCC
criterion not met

Please indicate if the recorded PBM E-score for AAGCGACG meets or exceeds 0.04.
criterion not met

For this sequence, is measured PBM E-score 0.04 or higher? CCTTAAGA
criterion not met

Form field: PBM E-score at least 0.04? Entry: GCAGGCGC
criterion met

Test whether the sequence GGACTACA records PBM E-score of 0.04 or higher.
criterion met

====

# PBM E-score annotations
Target under test: Mot3 (UniProt P54785)
Sequence: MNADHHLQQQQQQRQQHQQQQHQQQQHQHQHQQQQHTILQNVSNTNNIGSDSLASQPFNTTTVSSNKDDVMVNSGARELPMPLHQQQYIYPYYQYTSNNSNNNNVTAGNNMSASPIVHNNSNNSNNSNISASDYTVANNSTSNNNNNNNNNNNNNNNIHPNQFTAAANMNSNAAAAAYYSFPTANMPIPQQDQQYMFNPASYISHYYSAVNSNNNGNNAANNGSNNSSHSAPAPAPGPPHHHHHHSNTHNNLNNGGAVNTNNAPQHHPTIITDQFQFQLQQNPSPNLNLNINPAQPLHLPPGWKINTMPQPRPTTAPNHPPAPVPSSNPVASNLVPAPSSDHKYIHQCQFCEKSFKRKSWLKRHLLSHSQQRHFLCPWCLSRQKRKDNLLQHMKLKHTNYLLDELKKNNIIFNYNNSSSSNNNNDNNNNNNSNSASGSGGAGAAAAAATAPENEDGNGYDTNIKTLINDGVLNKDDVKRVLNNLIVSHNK
Assay comment: PBM E-score (8-mer binding enrichment) (E-score (-0.5 to 0.5)); higher = stronger / more preferred TF binding
Condition label: protein concentration: 200 nM; construct: GST-full length
Whole data set: some 33,000 sequences, median “E-score (-0.5 to 0.5)” near -0.035, cut for the highest 2% near 0.34. The entries come from a sample that favours the highest values as a whole.
# answer = number (no unit)

A selection of reference data follows.
>>> numeric_value("ATGTGTAC")
0.285
>>> numeric_value("CACGCTGG")
-0.0203

// fetch PBM E-score given entry ACGCTTAA
0.114

Return the recorded PBM E-score value; entry: AAGTCCGT
-0.0474

Note down PBM E-score recorded for ATCCATAG
-0.206

Give a short answer stating reported PBM E-score for AGCGACTC .
-0.134

Give recorded PBM E-score. GTTCCTAA
0.431

Identify the reported PBM E-score for the following entry. ATTCCTAA
0.105

Fill in PBM E-score for record AGCTACAT
0.145

Output PBM E-score of CGCAGGTC
0.0458

Annotate the sequence GACATGTA with its measured PBM E-score.
0.355

Return PBM E-score (reported value) for this sequence: TACATATA
0.317

Identify PBM E-score associated with the sequence TACATCTA
0.227

Read the entry ATGTATAA and write its reported PBM E-score.
0.256

Find the measured PBM E-score of CATTTCGG and report it.
-0.063

Consider the sequence GAACCATC . State its measured PBM E-score.
-0.0773

====

Target under test: Mot3 (UniProt P54785)
Sequence: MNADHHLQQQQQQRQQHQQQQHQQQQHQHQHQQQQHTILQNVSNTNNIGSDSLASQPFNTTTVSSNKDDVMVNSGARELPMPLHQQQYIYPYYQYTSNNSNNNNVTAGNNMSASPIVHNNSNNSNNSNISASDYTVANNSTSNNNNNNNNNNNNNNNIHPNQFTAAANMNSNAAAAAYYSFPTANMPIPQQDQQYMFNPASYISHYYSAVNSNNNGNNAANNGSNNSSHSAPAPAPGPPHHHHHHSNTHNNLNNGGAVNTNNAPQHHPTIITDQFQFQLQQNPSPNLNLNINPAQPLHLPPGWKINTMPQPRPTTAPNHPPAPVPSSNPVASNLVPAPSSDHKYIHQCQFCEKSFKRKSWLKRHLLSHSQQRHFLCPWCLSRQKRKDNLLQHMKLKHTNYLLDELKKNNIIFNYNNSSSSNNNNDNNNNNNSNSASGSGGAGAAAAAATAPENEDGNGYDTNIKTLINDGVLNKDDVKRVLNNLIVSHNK
Assay comment: PBM E-score (8-mer binding enrichment) (E-score (-0.5 to 0.5)); higher = stronger / more preferred TF binding
Condition label: protein concentration: 200 nM; construct: GST-full length
In all, about 33,000 sequences were measured (“E-score (-0.5 to 0.5)”: median about -0.035, highest 2% from about 0.34 on). The sample as a whole holds a higher share of the highest values than the screen did.
Class membership depends on PBM E-score alone; the intervals are Low = under -0.1, Mid = from -0.1 up to 0.2, High = 0.2 and over

Use the examples below as a reference point.
>>> group_label("AGACATGG")
"Mid"
>>> group_label("CCTAGGCG")
"Low"
>>> group_label("TCTAGACA")
"Mid"
>>> group_label("CCCGAAGG")
"Mid"
>>> group_label("TCCCCCCA")
"Low"

Entry AGGAAAAC belongs to which category?
High

Using the reported PBM E-score, which band applies to ATACATAC ?
High

Just checking, what class would you give TCTAGGAA here?
High

Categorize the following entry: ACTAGGCC
Low

Lab log: GTCCAACA — assign PBM E-score category
Mid

Could you place GGAGAAAC in its proper category? Many thanks.
Low
